test system: UT-SCC-24A; assay: relative IC50 (midpoint of the fitted curve; maximal inhibition may be below 50%); higher = less potent; details: culture condition: embedded in Matrigel; treatment time: 3 days
Exercise: for every item that follows, state its recorded relative IC50.
Give bare numbers, in nM.

# batch: return relative IC50 for each of the 4 compounds below
1. COc1cc(F)c(F)c(Nc2ccc(I)cc2F)c1NS(=O)(=O)C1(C[C@H](O)CO)CC1 [Refametinib]
2. Cc1c(CN2CCN(C(=O)[C@H](C)O)CC2)sc2c(N3CCOCC3)nc(-c3cnc(N)nc3)nc12 [Apitolisib]
3. CC(=O)Nc1cccc(-n2c(=O)n(C3CC3)c(=O)c3c(Nc4ccc(I)cc4F)n(C)c(=O)c(C)c32)c1 [Trametinib]
4. O=C(NC[C@H](O)CO)c1ccncc1Nc1ccc(I)cc1F [Pimasertib]

Given back:
3.14
577
1.4
4.15

----------
test system: UT-SCC-24B; assay: maximal % inhibition of viability relative to DMSO; higher = stronger effect; details: culture condition: plastic 2D (no matrix); treatment time: 3 days
property: maximal % inhibition of viability
Please make sure the unit comes right after the number.

Please review the following examples before continuing.
C=CC(=O)Nc1cc2c(Nc3ccc(F)c(Cl)c3)ncnc2cc1OCCCN1CCOCC1: 99.5%
C#Cc1cccc(Nc2ncnc3cc(OCCOC)c(OCCOC)cc23)c1: 80.9%

# batch: return maximal % inhibition of viability for each of the 2 compounds below
1. Cn1c(=O)c(F)c(Nc2ccc(I)cc2F)c2c(=O)n(C[C@@H](O)CO)cnc21
2. Cc1c(CN2CCN(C(=O)[C@H](C)O)CC2)sc2c(N3CCOCC3)nc(-c3cnc(N)nc3)nc12

Given back:
1. 79.9%
2. 93%

----------
system: UT-SCC-42A; assay: drug sensitivity score (DSS); higher = more sensitive; extreme values may be limits of the assay; settings: culture condition: embedded in Myogel + collagen I; treatment time: 3 days
Exercise: for every item that follows, state its recorded drug sensitivity score.
Give bare numbers, in DSS.

Please review the following examples before continuing.
CO[C@H]1C[C@@H]2CC[C@@H](C)[C@@](O)(O2)C(=O)C(=O)N2CCCC[C@H]2C(=O)O[C@H]([C@H](C)C[C@@H]2CC[C@@H](OC(=O)C(C)(CO)CO)[C@H](OC)C2)CC(=O)[C@H](C)/C=C(\C)[C@@H](O)[C@@H](OC)C(=O)[C@H](C)C[C@H](C)/C=C/C=C/C=C/1C: 5.23
Cn1cnc2c(F)c(Nc3ccc(Br)cc3F)c(C(=O)NOCCO)cc21: 5.2
COc1ccc(-c2cc3c(C)nc(N)nc3n([C@H]3CC[C@H](OCCO)CC3)c2=O)cn1: 5.73

Now for another entry.
UT-SCC-42A data for CO[C@H]1C[C@@H]2CC[C@@H](C)[C@@](O)(O2)C(=O)C(=O)N2CCCC[C@H]2C(=O)O[C@H]([C@H](C)C[C@@H]2CC[C@@H](OP(C)(C)=O)[C@H](OC)C2)CC(=O)[C@H](C)/C=C(\C)[C@@H](O)[C@@H](OC)C(=O)[C@H](C)C[C@H](C)/C=C/C=C/C=C/1C ; its drug sensitivity score: 5.73

----------
tested on: UT-SCC-24B; experiment: maximal % inhibition of viability relative to DMSO; higher = stronger effect; conditions: culture condition: plastic 2D (no matrix); treatment time: 3 days
property: maximal % inhibition of viability (%)
One number for each entry, in %.

Please review the following examples before continuing.
CO[C@H]1C[C@@H]2CC[C@@H](C)[C@@](O)(O2)C(=O)C(=O)N2CCCC[C@H]2C(=O)O[C@H]([C@H](C)C[C@@H]2CC[C@@H](OP(C)(C)=O)[C@H](OC)C2)CC(=O)[C@H](C)/C=C(\C)[C@@H](O)[C@@H](OC)C(=O)[C@H](C)C[C@H](C)/C=C/C=C/C=C/1C [Ridaforolimus]: 27.4
COc1cc(F)c(F)c(Nc2ccc(I)cc2F)c1NS(=O)(=O)C1(C[C@H](O)CO)CC1 [Refametinib]: 84
Cn1cnc2c(F)c(Nc3ccc(Br)cc3Cl)c(C(=O)NOCCO)cc21 [Selumetinib]: 89.7

# batch: return maximal % inhibition of viability for each of the 5 compounds below
1. CO[C@H]1C[C@@H]2CC[C@@H](C)[C@@](O)(O2)C(=O)C(=O)N2CCCC[C@H]2C(=O)O[C@H]([C@H](C)C[C@@H]2CC[C@@H](OC(=O)C(C)(CO)CO)[C@H](OC)C2)CC(=O)[C@H](C)/C=C(\C)[C@@H](O)[C@@H](OC)C(=O)[C@H](C)C[C@H](C)/C=C/C=C/C=C/1C [Temsirolimus]
2. CC(=O)Nc1cccc(-n2c(=O)n(C3CC3)c(=O)c3c(Nc4ccc(I)cc4F)n(C)c(=O)c(C)c32)c1 [Trametinib]
3. CN(C)C/C=C/C(=O)Nc1cc2c(Nc3ccc(F)c(Cl)c3)ncnc2cc1O[C@H]1CCOC1 [Afatinib]
4. O=C(NC[C@H](O)CO)c1ccncc1Nc1ccc(I)cc1F [Pimasertib]
5. COc1ncc(-c2ccc3nccc(-c4ccnnc4)c3c2)cc1NS(=O)(=O)c1ccc(F)cc1F [Omipalisib]

Given back:
1: 29.7; 2: 78.8; 3: 71.4; 4: 88.9; 5: 96.3

----------
system: UT-SCC-73; test: drug sensitivity score (DSS); higher = more sensitive; extreme values may be limits of the assay; details: culture condition: embedded in Matrigel; treatment time: 3 days
Exercise: for every item that follows, state its recorded drug sensitivity score.
Give bare numbers, in DSS.

# batch: return drug sensitivity score for each of the 5 compounds below
1. COc1ncc(-c2ccc3nccc(-c4ccnnc4)c3c2)cc1NS(=O)(=O)c1ccc(F)cc1F
2. Cn1c(=O)c(F)c(Nc2ccc(I)cc2F)c2c(=O)n(C[C@@H](O)CO)cnc21
3. CO[C@H]1C[C@@H]2CC[C@@H](C)[C@@](O)(O2)C(=O)C(=O)N2CCCC[C@H]2C(=O)O[C@H]([C@H](C)C[C@@H]2CC[C@@H](OP(C)(C)=O)[C@H](OC)C2)CC(=O)[C@H](C)/C=C(\C)[C@@H](O)[C@@H](OC)C(=O)[C@H](C)C[C@H](C)/C=C/C=C/C=C/1C
4. Cn1cnc2c(F)c(Nc3ccc(Br)cc3Cl)c(C(=O)NOCCO)cc21
5. COc1ccc(-c2cc3c(C)nc(N)nc3n([C@H]3CC[C@H](OCCO)CC3)c2=O)cn1

Given back:
24.1
24.7
7.23
21
16

# batch: return drug sensitivity score for each of the 2 compounds below
1. O=C(NC[C@H](O)CO)c1ccncc1Nc1ccc(I)cc1F
2. Cn1c(=O)n(-c2ccc(C(C)(C)C#N)cc2)c2c3cc(-c4cnc5ccccc5c4)ccc3ncc21

Given back:
1. 27.8
2. 0

----------
test system: UT-SCC-14; experiment: drug sensitivity score (DSS); higher = more sensitive; extreme values may be limits of the assay; conditions: culture condition: embedded in Myogel + collagen I; treatment time: 3 days
Exercise: for every item that follows, state its recorded drug sensitivity score.
Give bare numbers, in DSS.

Please review the following examples before continuing.
Cn1c(=O)c(F)c(Nc2ccc(I)cc2F)c2c(=O)n(C[C@@H](O)CO)cnc21: 7.5
Cc1c(CN2CCN(C(=O)[C@H](C)O)CC2)sc2c(N3CCOCC3)nc(-c3cnc(N)nc3)nc12: 6.9
O=C(NC[C@H](O)CO)c1ccncc1Nc1ccc(I)cc1F: 12.2

Now for another entry.
The measured drug sensitivity score associated with COc1cc2ncnc(Nc3ccc(F)c(Cl)c3)c2cc1OCCCN1CCOCC1 reads 1.63

----------
test system: UT-SCC-24B; assay: relative IC50 (midpoint of the fitted curve; maximal inhibition may be below 50%); higher = less potent; conditions: culture condition: on top of Myogel; treatment time: 3 days
Exercise: for every item that follows, state its recorded relative IC50.
Numbers only, in nM.

Please review the following examples before continuing.
Cc1c(CN2CCN(C(=O)[C@H](C)O)CC2)sc2c(N3CCOCC3)nc(-c3cnc(N)nc3)nc12: 1150
C=CC(=O)Nc1cc2c(Nc3ccc(F)c(Cl)c3)ncnc2cc1OCCCN1CCOCC1: 1580

# batch: return relative IC50 for each of the 6 molecules below
1. O=C(NC[C@H](O)CO)c1ccncc1Nc1ccc(I)cc1F
2. CO[C@H]1C[C@@H]2CC[C@@H](C)[C@@](O)(O2)C(=O)C(=O)N2CCCC[C@H]2C(=O)O[C@H]([C@H](C)C[C@@H]2CC[C@@H](OC(=O)C(C)(CO)CO)[C@H](OC)C2)CC(=O)[C@H](C)/C=C(\C)[C@@H](O)[C@@H](OC)C(=O)[C@H](C)C[C@H](C)/C=C/C=C/C=C/1C
3. COc1cc(F)c(F)c(Nc2ccc(I)cc2F)c1NS(=O)(=O)C1(C[C@H](O)CO)CC1
4. CO[C@H]1C[C@@H]2CC[C@@H](C)[C@@](O)(O2)C(=O)C(=O)N2CCCC[C@H]2C(=O)O[C@H]([C@H](C)C[C@@H]2CC[C@@H](OCCO)[C@H](OC)C2)CC(=O)[C@H](C)/C=C(\C)[C@@H](O)[C@@H](OC)C(=O)[C@H](C)C[C@H](C)/C=C/C=C/C=C/1C
5. CO[C@H]1C[C@@H]2CC[C@@H](C)[C@@](O)(O2)C(=O)C(=O)N2CCCC[C@H]2C(=O)O[C@H]([C@H](C)C[C@@H]2CC[C@@H](O)[C@H](OC)C2)CC(=O)[C@H](C)/C=C(\C)[C@@H](O)[C@@H](OC)C(=O)[C@H](C)C[C@H](C)/C=C/C=C/C=C/1C
6. C#Cc1cccc(Nc2ncnc3cc(OCCOC)c(OCCOC)cc23)c1

Given back:
1. 653
2. 1
3. 1430
4. 5.03
5. 2.6
6. 2490

# batch: return relative IC50 for each of the 5 molecules below
1. COc1ccc(-c2cc3c(C)nc(N)nc3n([C@H]3CC[C@H](OCCO)CC3)c2=O)cn1
2. Cn1c(=O)n(-c2ccc(C(C)(C)C#N)cc2)c2c3cc(-c4cnc5ccccc5c4)ccc3ncc21
3. Cn1cnc2c(F)c(Nc3ccc(Br)cc3Cl)c(C(=O)NOCCO)cc21
4. CC(=O)Nc1cccc(-n2c(=O)n(C3CC3)c(=O)c3c(Nc4ccc(I)cc4F)n(C)c(=O)c(C)c32)c1
5. COc1ncc(-c2ccc3nccc(-c4ccnnc4)c3c2)cc1NS(=O)(=O)c1ccc(F)cc1F

Given back:
1: 562; 2: 31.3; 3: 177; 4: 22.7; 5: 15.8

Data credit: the supplement of paper PMC7017272
